molecular target: mouse Tas2r144 (Mus musculus); construct: expressed in transfected cells; host or cells: HEK293T-Gα16gust44; assay: Calcium imaging assay (FLIPR), HEK293T-Gα16gust44 cells transfected with mouse Tas2r144; format: cell-based; details: Time 98.781 s
Sequence (Q7TQB8 whole entry): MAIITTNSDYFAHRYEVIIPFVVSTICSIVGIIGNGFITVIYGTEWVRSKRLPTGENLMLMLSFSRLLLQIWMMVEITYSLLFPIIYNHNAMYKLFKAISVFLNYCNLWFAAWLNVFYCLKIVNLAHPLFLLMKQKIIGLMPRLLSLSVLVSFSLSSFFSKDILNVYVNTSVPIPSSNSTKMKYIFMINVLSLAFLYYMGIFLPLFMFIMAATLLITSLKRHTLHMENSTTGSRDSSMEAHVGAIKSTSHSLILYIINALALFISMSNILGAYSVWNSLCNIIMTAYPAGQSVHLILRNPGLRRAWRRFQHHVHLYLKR
Answer each item with its documented RLU.
Answers are plain numbers, in RLU.

[[record]]
entry_smiles = "C[C@H](CCC(=O)O)[C@H]1CC[C@H]2[C@@H]3[C@H](O)C[C@@H]4C[C@H](O)CC[C@]4(C)[C@H]3C[C@H](O)[C@]12C"
unit = "RLU"
measured_value = 521.114


Could you report RLU for every entry in the following list?
1. C[C@H](CCC(=O)NCC(=O)O)[C@H]1CC[C@H]2[C@@H]3[C@H](O)C[C@@H]4C[C@H](O)CC[C@]4(C)[C@H]3C[C@H](O)[C@]12C
2. C[C@H](CCC(=O)NCCS(=O)(=O)O)[C@H]1CC[C@H]2[C@@H]3CC[C@@H]4C[C@H](O)CC[C@]4(C)[C@H]3CC[C@]12C
3. C[C@H](CCC(=O)NCCS(=O)(=O)O)[C@H]1CC[C@H]2[C@@H]3[C@H](O)C[C@@H]4C[C@H](O)CC[C@]4(C)[C@H]3C[C@H](O)[C@]12C

Resp:
[357.346, 373.324, 551.349]

----------
molecular target: mouse Tas2r144 (Mus musculus); construct: expressed in transfected cells; host or cells: HEK293T-Gα16gust44; assay: Calcium imaging assay (FLIPR), HEK293T-Gα16gust44 cells transfected with mouse Tas2r144; format: cell-based; conditions: Time 18 s
Answer each item with its documented RLU.
One number for each entry, in RLU.

# annotated cases, reported RLU shown
[[record]]
molecule = "C[C@H](CCC(=O)NCCS(=O)(=O)O)[C@H]1CC[C@H]2[C@@H]3CC[C@@H]4C[C@H](O)CC[C@]4(C)[C@H]3CC[C@]12C [Taurolithocholic Acid, taurolithocholic acid]"
tgt = "mouse Tas2r144 (Mus musculus)"
readout_kind = "RLU"
measured_value = 24.6697

[[record]]
molecule = "C[C@H](CCC(=O)O)[C@H]1CC[C@H]2[C@@H]3[C@H](O)C[C@@H]4C[C@H](O)CC[C@]4(C)[C@H]3C[C@H](O)[C@]12C [Cholic Acid, cholic acid]"
tgt = "mouse Tas2r144 (Mus musculus)"
readout_kind = "RLU"
measured_value = 29.9569

[[record]]
molecule = "C[C@H](CCC(=O)NCC(=O)O)[C@H]1CC[C@H]2[C@@H]3[C@H](O)C[C@@H]4C[C@H](O)CC[C@]4(C)[C@H]3C[C@H](O)[C@]12C [Glycocholic Acid, glycocholic acid]"
tgt = "mouse Tas2r144 (Mus musculus)"
readout_kind = "RLU"
measured_value = 10.0299


Let's switch to this molecule now.
Entry C[C@H](CCC(=O)NCCS(=O)(=O)O)[C@H]1CC[C@H]2[C@@H]3[C@H](O)C[C@@H]4C[C@H](O)CC[C@]4(C)[C@H]3C[C@H](O)[C@]12C [Taurocholic Acid, taurocholic acid] under mouse Tas2r144 (Mus musculus) had RLU of 16.9759

----------
molecular target: human TAS2R1 (Homo sapiens, UniProt Q9NYW7); construct: expressed in transfected cells; host or cells: HEK293T-Gα16gust44; assay: Calcium imaging assay (FLIPR), HEK293T-Gα16gust44 cells transfected with human TAS2R1; assay type: cell-based; conditions: Time 44.796 s
Sequence (Q9NYW7 whole entry): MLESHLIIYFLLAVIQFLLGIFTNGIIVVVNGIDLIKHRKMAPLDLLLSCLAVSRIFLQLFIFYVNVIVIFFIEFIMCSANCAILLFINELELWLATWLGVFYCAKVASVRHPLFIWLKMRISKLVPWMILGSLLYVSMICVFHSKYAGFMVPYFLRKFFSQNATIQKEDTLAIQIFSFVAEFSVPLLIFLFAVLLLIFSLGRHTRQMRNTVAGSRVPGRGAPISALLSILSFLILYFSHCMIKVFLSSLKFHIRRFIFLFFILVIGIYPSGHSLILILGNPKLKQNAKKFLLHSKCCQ
readout_kind: RLU (RLU)
Answers are plain numbers, in RLU.

# annotated cases, reported RLU shown
[[record]]
entry_smiles = "C[C@H](CCC(=O)O)[C@H]1CC[C@H]2[C@@H]3[C@@H](O)C[C@@H]4C[C@H](O)CC[C@]4(C)[C@H]3CC[C@]12C"
measured_value = 694.821

[[record]]
entry_smiles = "C[C@H](CCC(=O)O)[C@H]1CC[C@H]2[C@@H]3[C@H](O)C[C@@H]4C[C@H](O)CC[C@]4(C)[C@H]3CC[C@]12C"
measured_value = 905.241

[[record]]
entry_smiles = "C[C@H](CCC(=O)O)[C@H]1CC[C@H]2[C@@H]3CC[C@@H]4C[C@H](O)CC[C@]4(C)[C@H]3CC[C@]12C"
measured_value = 679.197


Entry `C[C@H](CCC(=O)O)[C@H]1CC[C@H]2[C@@H]3[C@H](O)C[C@@H]4C[C@H](O)CC[C@]4(C)[C@H]3C[C@H](O)[C@]12C` , RLU reported as 718.237
